target: T1, integrin αvβ3, purified from human placenta (human, UniProt P06756 31-1048; P05106 27-788); assay: SPR (BIAcore), purified Fab over immobilized αvβ3
T1 construct: mature; Native heterodimer, immobilized on ELISA plates or on the BIAcore chip; biotinylated in capture lift and capture ELISA screens; also called αvβ3 receptor; vitronectin receptor
T1 sequence (P06756 31-1048, form in doubt, chain 1 of 2): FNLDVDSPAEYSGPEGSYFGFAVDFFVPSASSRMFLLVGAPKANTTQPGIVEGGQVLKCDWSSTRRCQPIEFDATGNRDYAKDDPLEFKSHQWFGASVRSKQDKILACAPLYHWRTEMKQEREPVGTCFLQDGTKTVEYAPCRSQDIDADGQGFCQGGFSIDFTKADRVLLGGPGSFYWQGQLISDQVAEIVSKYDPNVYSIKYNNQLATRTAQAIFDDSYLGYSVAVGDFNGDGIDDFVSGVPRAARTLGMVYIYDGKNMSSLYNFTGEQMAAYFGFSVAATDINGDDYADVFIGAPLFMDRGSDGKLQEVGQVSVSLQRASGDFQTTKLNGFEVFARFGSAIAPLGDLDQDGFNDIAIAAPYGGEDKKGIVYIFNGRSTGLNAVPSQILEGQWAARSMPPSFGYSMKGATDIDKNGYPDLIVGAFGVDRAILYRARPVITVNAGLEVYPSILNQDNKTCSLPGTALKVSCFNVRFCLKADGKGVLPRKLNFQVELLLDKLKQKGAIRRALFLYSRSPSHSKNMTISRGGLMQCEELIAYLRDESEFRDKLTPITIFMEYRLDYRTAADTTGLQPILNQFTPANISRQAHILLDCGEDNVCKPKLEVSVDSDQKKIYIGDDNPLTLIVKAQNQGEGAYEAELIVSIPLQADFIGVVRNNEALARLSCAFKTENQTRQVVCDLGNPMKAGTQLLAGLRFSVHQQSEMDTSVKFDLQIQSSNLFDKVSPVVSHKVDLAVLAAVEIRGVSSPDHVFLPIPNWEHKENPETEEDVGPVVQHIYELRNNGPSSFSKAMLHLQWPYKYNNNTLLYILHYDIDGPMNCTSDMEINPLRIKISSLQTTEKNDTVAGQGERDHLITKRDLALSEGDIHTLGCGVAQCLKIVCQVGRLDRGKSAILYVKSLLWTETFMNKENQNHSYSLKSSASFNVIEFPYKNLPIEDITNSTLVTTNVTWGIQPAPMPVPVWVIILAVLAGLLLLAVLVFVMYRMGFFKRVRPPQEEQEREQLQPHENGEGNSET
T1 sequence (P05106 27-788, form in doubt, chain 2 of 2): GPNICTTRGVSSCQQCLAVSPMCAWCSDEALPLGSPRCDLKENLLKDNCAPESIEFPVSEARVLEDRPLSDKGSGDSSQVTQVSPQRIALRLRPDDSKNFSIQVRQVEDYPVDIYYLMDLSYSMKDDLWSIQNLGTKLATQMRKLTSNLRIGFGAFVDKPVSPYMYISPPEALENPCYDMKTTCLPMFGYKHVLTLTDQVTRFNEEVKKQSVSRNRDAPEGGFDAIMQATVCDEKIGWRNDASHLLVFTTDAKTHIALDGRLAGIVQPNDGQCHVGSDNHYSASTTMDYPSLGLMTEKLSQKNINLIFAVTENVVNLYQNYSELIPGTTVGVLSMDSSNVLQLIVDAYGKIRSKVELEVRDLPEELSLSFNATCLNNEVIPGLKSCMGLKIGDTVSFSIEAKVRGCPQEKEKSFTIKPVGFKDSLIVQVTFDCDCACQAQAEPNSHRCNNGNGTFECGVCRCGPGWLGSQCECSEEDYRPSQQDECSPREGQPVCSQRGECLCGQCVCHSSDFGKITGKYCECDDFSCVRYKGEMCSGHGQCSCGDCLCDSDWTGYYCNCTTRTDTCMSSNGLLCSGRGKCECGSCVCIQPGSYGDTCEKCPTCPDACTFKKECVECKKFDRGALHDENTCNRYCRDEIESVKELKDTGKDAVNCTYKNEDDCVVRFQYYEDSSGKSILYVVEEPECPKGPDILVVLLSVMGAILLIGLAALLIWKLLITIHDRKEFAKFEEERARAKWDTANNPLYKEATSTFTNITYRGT
Quick reference: fold slower dissociation rate than parent of the listed items.

LM609 grafted antibody combinatorial clone 6D1 (Fab, V domains shown, Fab) VH: QVQLVESGGGVVQPGRSLRLSCAASGFTFSSYDMSWVRQAPGKGLEWVAKVSSGGGSTYYPDTVQGRFTISRDNSKNTLYLQMNSLRAEDTAVYYCARHNYGSFYSWGQGTTVTVSS VL: EIVLTQSPATLSLSPGERATLSCQASQSISNHLHWYQQRPGQAPRLLIRYRSQSISGIPARFSGSGSGTDFTLTISSLEPEDFAVYYCQQSGSWPLTFGGGTKVEIK	> 10 fold
LM609 grafted antibody combinatorial clone C29 (Fab, V domains shown, Fab) VH: QVQLVESGGGVVQPGRSLRLSCAASGFTFSSYDMSWVRQAPGKGLEWVAKVSSGGGSTYYPDTVQGRFTISRDNSKNTLYLQMNSLRAEDTAVYYCARHNHGSFYSWGQGTTVTVSS VL: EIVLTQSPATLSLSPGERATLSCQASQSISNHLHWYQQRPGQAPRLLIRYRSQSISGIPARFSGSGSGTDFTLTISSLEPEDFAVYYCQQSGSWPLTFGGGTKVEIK	> 10 fold

query: # get_value(readout='fold slower dissociation rate than parent', item= LM609 grafted antibody combinatorial clone 7 (Fab, V domains shown, Fab) VH: QVQLVESGGGVVQPGRSLRLSCAASGFTFSSYDMSWVRQAPGKGLEWVAKVSSGGGSTYYPDTVQGRFTISRDNSKNTLYLQMNSLRAEDTAVYYCARHNHGSFASWGQGTTVTVSS VL: EIVLTQSPATLSLSPGERATLSCQASQSISNFLHWYQQRPGQAPRLLIRYRSQSISGIPARFSGSGSGTDFTLTISSLEPEDFAVYYCQQSGSWPHTFGGGTKVEIK )
result: > 10 fold
